- target-or-system: Coagulation factor XII (Homo sapiens) (UniProt P00748)
- Sequence (P00748 20-372 limits assumed): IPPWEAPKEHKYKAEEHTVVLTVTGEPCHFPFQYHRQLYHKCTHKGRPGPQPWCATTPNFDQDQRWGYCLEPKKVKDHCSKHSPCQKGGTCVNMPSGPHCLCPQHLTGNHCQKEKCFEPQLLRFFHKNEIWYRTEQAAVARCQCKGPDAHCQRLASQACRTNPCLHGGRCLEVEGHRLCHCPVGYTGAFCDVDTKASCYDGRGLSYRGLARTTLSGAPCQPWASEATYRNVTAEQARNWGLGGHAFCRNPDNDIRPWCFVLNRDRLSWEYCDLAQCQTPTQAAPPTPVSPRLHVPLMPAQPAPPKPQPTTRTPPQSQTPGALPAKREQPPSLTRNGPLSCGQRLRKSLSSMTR
- Sequence (P00748 373-615 limits assumed): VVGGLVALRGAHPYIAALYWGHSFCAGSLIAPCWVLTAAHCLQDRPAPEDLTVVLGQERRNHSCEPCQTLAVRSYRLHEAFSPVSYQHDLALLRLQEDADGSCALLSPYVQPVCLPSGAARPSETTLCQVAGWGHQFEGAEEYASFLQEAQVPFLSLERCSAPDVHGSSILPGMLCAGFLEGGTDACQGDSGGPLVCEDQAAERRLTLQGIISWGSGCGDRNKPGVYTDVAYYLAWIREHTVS
- protocol-notes: coagulation factor XIIa activity inhibition – biochemical, 1536-well, primary screen (AID 800);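 further: 0% = enzyme with no compound and 100% = blank without enzyme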
- condition-info: purified FXIIa, Boc-QGR-AMC fluorogenic substrate, 2 h; at 5 µM; active compounds read high
Screen size: about 220,000 compounds; about 650 (0.3%) were called active. The sample holds actives, similar compounds and a random draw of the others, so the mix is not that of the screen.
Would you mind telling me the reported inhibition of each entry?
Answers are plain numbers, in %.

- compound: "S=c1[nH]nc(-c2cc(-c3ccsc3)n[nH]2)n1-c1ccccc1"
  experimental-endpoint: "inhibition"
  result-value: 4.05
- compound: "COC(=O)CSc1ncnc2c1cnn2-c1ccc(C)cc1C"
  experimental-endpoint: "inhibition"
  result-value: 5.55
- compound: "CN(Cc1ccccn1)Cc1nc(-c2ccc(Cl)cc2)no1"
  experimental-endpoint: "inhibition"
  result-value: 103
- compound: "Oc1[nH]c2ccc(Br)cc2c1N=Nc1nn[nH]n1"
  experimental-endpoint: "inhibition"
  result-value: 12.3
- compound: "CSCC[C@H](NC(=O)NC1CCCC1)C(=O)O"
  experimental-endpoint: "inhibition"
  result-value: 0.35
- compound: "Cc1[nH]n(C)c(=O)c1C(=O)c1c(-c2c(Cl)cccc2Cl)noc1C"
  experimental-endpoint: "inhibition"
  result-value: 2.28
- compound: "CCOC(=O)c1cc(C)nc(S(C)(=O)=O)c1C#N"
  experimental-endpoint: "inhibition"
  result-value: 2.84
- compound: "O=C(O)C(F)(F)C(NCc1ccccc1)c1ccccc1 (stereo unspecified)"
  experimental-endpoint: "inhibition"
  result-value: 18.5

Each of the following entries comes with a recorded value; kindly state inhibition for each.
1. O=C(O)C1=C[C@H](c2cccs2)C[C@H](OCCCCO)O1
2. O=C(NCc1ccc2c(c1)OCO2)c1sccc1Br
3. CC/C(=N\NC(=S)NC(C)C)c1ccc(OC(F)F)cc1

[reply]
7.11
8.69
52.2

###

- target-or-system: Coagulation factor XII (Homo sapiens) (UniProt P00748)
- protocol-notes: coagulation factor XIIa activity inhibition – biochemical, 1536-well, primary screen (AID 800);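 further: 0% = enzyme with no compound and 100% = blank without enzyme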
- condition-info: purified FXIIa, Boc-QGR-AMC fluorogenic substrate, 2 h; at 5 µM; active compounds read high
The whole screen tested about 220,000 compounds, of which about 650 (0.3%) were called active. This is one part of a sample in which actives are shown more often than they occur.
experimental-endpoint: inhibition (%)
Answers are plain numbers, in %.

- compound: "COc1ccc(OCC(=O)N2CCN(C(=O)c3cccs3)CC2)cc1"
  target-or-system: "Coagulation factor XII (Homo sapiens) (UniProt P00748)"
  inhibition [%]: 0.82

Each of the following entries comes with a recorded value; kindly state inhibition for each.
1. O=C1CCC(=O)N(O)CCCCCNC(=O)CCC(=O)N(O)CCCCCNC(=O)CCC(=O)N(O)CCCCCN1
2. CCOC(=O)c1cnc(COc2ccccc2Cl)[nH]c1=O
3. CCOc1ccc(C2c3[nH]c4ccccc4c3CCN2Cc2cccn2-c2ncccn2)cc1 (stereo not drawn)
4. CC(C)(C)NC(=O)/C(=C/c1cccnc1)NC(=O)c1ccco1
5. CCCCCCNS(=O)(=O)c1ccccc1Br
6. COc1ccc(SC[C@H](Cc2ccccc2)N2CCN(CCc3ccccc3)CCC2=O)cc1
7. O=C(COc1ccc(Cl)cc1[N+](=O)[O-])N1CCCCC1

[reply]
[6.14, 3.67, 4.53, 15.3, 9.21, 9.1, 2.91]

###

- target-or-system: Coagulation factor XII (Homo sapiens) (UniProt P00748)
- protocol-notes: coagulation factor XIIa activity inhibition – biochemical, 1536-well, primary screen (AID 800);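 further: 0% = enzyme with no compound and 100% = blank without enzyme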
- condition-info: purified FXIIa, Boc-QGR-AMC fluorogenic substrate, 2 h; at 5 µM; active compounds read high
Hit rate of the full screen: of about 220,000 compounds, about 650 (0.3%) were called active. The sample as a whole holds a higher share of actives than the screen did.
Would you mind telling me the reported inhibition of each entry?
Answers are plain numbers, in %.

- molecule: "COc1ccc2[nH]c(C(=O)Nc3ccccc3Cl)cc2c1"
  inhibition (%): 6.03
- molecule: "COc1ccc(Cl)cc1S(=O)(=O)N1CCC(O)(c2ccc(Cl)cc2)CC1"
  inhibition (%): 3.43
- molecule: "CCC/C(C)=N\\Nc1nc2c(c(=O)n(C)c(=O)n2C)n1C"
  inhibition (%): 5.02
- molecule: "Cc1ccc(Nc2c3c(nc4ccccc24)CCC3)cc1"
  inhibition (%): 9.63
- molecule: "COc1ccc(SCCN2CCN(CC(C)C)CCC2=O)cc1"
  inhibition (%): 7.64
- molecule: "C#CCOCCOCCOCCNc1nc(N2CCN(C(=O)[C@H](CCC(=O)O)n3cc(C(N)CO)nn3)CC2)nc(N2CCN(C(=O)[C@H](CCCCN)n3cc(C(N)CC(C)C)nn3)CC2)n1 (stereo partly specified)"
  inhibition (%): 5.53

Each of the following entries comes with a recorded value; kindly state inhibition for each.
1. CCc1nnc(NC(=O)CCC(=O)NCc2ccccc2OC)s1
2. Cc1ccc(/C=C/C(=O)O)cc1S(=O)(=O)N1CCC(Cc2ccccc2)CC1
3. CC(C)=CCC/C(C)=C/C(=O)O
4. CN(C)/C=C1\C=C(c2ccccc2)OC1=O
5. C=C(C)C(=O)Nc1cccc(C2=NOC3(C2)C[C@H](C(N)=O)N(C(=O)C(c2ccccc2)c2ccccc2)C3)c1 (stereo partly specified)
6. CC(C)C(=O)N1CCC2(CC1)Oc1ccc(F)cc1C(=O)C21CC(c2ccccc2)=NO1 (stereo unspecified)
7. O=C(Nc1ccc(N2CCN(C(=O)c3ccccc3)CC2)c(Cl)c1)c1ncn[nH]1

[reply]
1. 15
2. 6.76
3. 4.62
4. 49.5
5. 0.36
6. 8.49
7. 7.54

Each of the following entries comes with a recorded value; kindly state inhibition for each.
1. CC(C)(C)C(=O)Nc1c(Br)c(C2CC2)nn1-c1ccccc1
2. O=C(NC1CC1)C1=C[C@H](c2c[nH]c3ccccc23)C[C@H](OCc2ccc(CO)cc2)O1
3. CCc1ccc(S(=O)(=O)NCC(O)COc2ccc(OC)cc2)cc1 (stereo unspecified)

[reply]
[6.88, 1.62, 6.59]

###

- target-or-system: Coagulation factor XII (Homo sapiens) (UniProt P00748)
- protocol-notes: coagulation factor XIIa activity inhibition – biochemical, 1536-well, primary screen (AID 800);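 further: 0% = enzyme with no compound and 100% = blank without enzyme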
- condition-info: purified FXIIa, Boc-QGR-AMC fluorogenic substrate, 2 h; at 5 µM; active compounds read high
The whole screen tested about 220,000 compounds, of which about 650 (0.3%) were called active. The list comes from a sample in which actives are over-represented; it also holds close analogues and randomly drawn compounds.
experimental-endpoint: inhibition (%)
Give bare numbers, in %.

Solved entries (count: 2):
- molecule: "Cc1cc(NC(=O)c2cccc(N3C(=O)CCC3=O)c2)no1"
  target-or-system: "Coagulation factor XII (Homo sapiens) (UniProt P00748)"
  value-unit: "%"
  inhibition: 16.7
- molecule: "COc1ccc2c(c1)c1ncn(Cc3ccccn3)c(=O)c1n2C"
  target-or-system: "Coagulation factor XII (Homo sapiens) (UniProt P00748)"
  value-unit: "%"
  inhibition: -1.96

Each of the following entries comes with a recorded value; kindly state inhibition for each.
1. Cc1ccc(Nc2nc(N)nc(CSc3nnc(C)s3)n2)cc1
2. O=C(Nc1ccc(F)cc1)c1cc2c(s1)CCCC2
3. COc1ccccc1-c1c(C#N)c(N)nc2c1CCC2
4. Cc1cnc(NC(=O)c2ccccn2)s1

[reply]
4.96
8.77
-2.02
7.08

Each of the following entries comes with a recorded value; kindly state inhibition for each.
1. CNC(=O)c1cccc2nc3ccccc3nc12
2. O=c1c2ccccc2cnn1Cc1n[nH]c(=S)n1-c1ccccc1F
3. O=C(Nc1cccnc1Oc1ncnc2cc(Cl)ccc12)c1ccc(F)cc1
4. CC1CC(C)(C)n2c(O)c(N=NC(N)=S)c3cccc1c32 (configuration not stated)
5. CSc1nc(C)nc(C2CC2)c1C#N
6. Cc1nc(C(=O)NCc2ccccc2)sc1C1(C)CC(c2cccnc2)=NO1 (configuration not stated)

[reply]
1: 6.68; 2: 4.28; 3: 0.47; 4: 30.2; 5: 1.66; 6: 6.55

###

- target-or-system: Coagulation factor XII (Homo sapiens)
- protocol-notes: coagulation factor XIIa activity inhibition – biochemical, 1536-well, primary screen (AID 800);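 further: 0% = enzyme with no compound and 100% = blank without enzyme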
- condition-info: purified FXIIa, Boc-QGR-AMC fluorogenic substrate, 2 h; at 5 µM; active compounds read high
Screen size: about 220,000 compounds; about 650 (0.3%) were called active. The sample holds actives, similar compounds and a random draw of the others, so the mix is not that of the screen.
experimental-endpoint: inhibition (%)
Numbers only, in %.

Solved entries (count: 10):
- compound: "CN(C)/C=C/c1c(C#N)c(=O)ncn1Cc1ccccc1"
  value-unit: "%"
  inhibition: 53
- compound: "CCN(CC)CCC(c1ccc2c(c1)OCO2)c1c(OC)cc(OC)c2c(-c3ccccc3)cc(=O)oc12 (stereo not given)"
  value-unit: "%"
  inhibition: 8.45
- compound: "Cc1nc(Cl)c(C#N)c2c1CCCC2"
  value-unit: "%"
  inhibition: 2.37
- compound: "O=C(Cn1cnc2cc([N+](=O)[O-])ccc2c1=O)NC(=O)NCc1ccccc1"
  value-unit: "%"
  inhibition: 1.31
- compound: "FC(F)(F)c1ccnc(Oc2ccc(C3=NCCS3)cc2)c1"
  value-unit: "%"
  inhibition: 9.29
- compound: "CC1=NNC(=O)C1CC(=O)N/N=C/c1ccncc1 (stereo not given)"
  value-unit: "%"
  inhibition: 2.75
- compound: "Cc1cc(C)c(NC(=O)CN2C(=O)NC(Cc3ccccc3)C2=O)c(C)c1 (stereo not given)"
  value-unit: "%"
  inhibition: 0.73
- compound: "O=C(O)CCn1c(O)c(C=C2N=c3ccccc3=N2)sc1=S"
  value-unit: "%"
  inhibition: 12.8
- compound: "Cc1ccccc1Nc1c(-c2ccccc2)nc2ncccn12"
  value-unit: "%"
  inhibition: 5.54
- compound: "COCCCn1c(-c2cccs2)nc2nc3ccccc3nc21"
  value-unit: "%"
  inhibition: -19.8

Each of the following entries comes with a recorded value; kindly state inhibition for each.
1. CCOC(=O)COc1nc(C)cc(C(F)(F)F)c1C#N
2. O=C(NN1C(=O)C2CCCCC2C1=O)c1ccco1 (stereo not given)
3. CCC1SC(CC)C(=O)N(CC(=O)NC2CCCCC2)C1=O (stereo not given)
4. CCOC(=O)CC1C(=O)NCCN1c1nc2c(C)cccn2c(=O)c1/C=C1\SC(=S)N(C(C)CC)C1=O (stereo not given)
5. CCc1ccc[n+](-c2nc([O-])sc2C=O)c1
6. COc1ccc(C2/C=C\CN(S(=O)(=O)c3cccs3)CC(=O)N2Cc2ccc(F)cc2)cc1 (stereo not given)
7. O=c1[nH]nc(SCCS(=O)(=O)c2ccc(F)cc2)n1-c1ccccc1C(F)(F)F
8. Cc1ccc(-n2ncc3c(=O)[nH]cnc32)c(C)c1

[reply]
[-0.55, 5.14, 101, 14, 9.94, 9.45, 6.99, 54]

Each of the following entries comes with a recorded value; kindly state inhibition for each.
1. O=c1cc(CCl)nc2scc(-c3ccccc3)n12
2. Cc1c(C#N)c2ncn(CC#N)c(=O)c2n1-c1ccccc1
3. CCN(CC(=O)Nc1ccc(S(=O)(=O)N2CCCC2)cc1)CC(=O)Nc1cccc(OC)c1
4. CC(C)c1ccc(NC(=S)NC2CC3C=CC2C3)cc1 (stereo not given)
5. COc1cccc(Nc2nnc(SCC(=O)N3CC(=O)Nc4ccccc43)s2)c1
6. Cc1cc(C)cc(OCC(=O)O/N=C(\N)Cc2ccc([N+](=O)[O-])cc2)c1

[reply]
1: 6.87; 2: 7.67; 3: 3.63; 4: 3.63; 5: 5.5; 6: 0.85

Each of the following entries comes with a recorded value; kindly state inhibition for each.
1. C=C1CCN([C@H](C(=O)NCc2cc(OC)c(OC)c(OC)c2)C(C)C)S(=O)(=O)c2ccccc21
2. CCN(CC)C(=O)CC(c1ccc2c(c1)OCO2)c1c(OC)cc(OC)c2c(-c3ccccc3)cc(=O)oc12 (stereo not given)
3. Cc1ccc(S(=O)(=O)N2CCN(C(=O)COC(=O)c3c(C)noc3C)CC2)c(C)c1
4. CCOCCn1c(-c2ccccc2)nc2ccccc21
5. S=c1[nH]c2ccccc2c2ccccc12
6. CN(c1ccccn1)c1ncnc2[nH]ncc12
7. O=C(NCc1cccnc1)c1cnc2ccccc2n1
8. Cc1nc(=O)c(-c2ccccc2)c(C)n1-c1ccc(Br)cc1

[reply]
1: 4.35; 2: -2.49; 3: 7.88; 4: 9.94; 5: 2.88; 6: 3.53; 7: 8.13; 8: 7.02

Each of the following entries comes with a recorded value; kindly state inhibition for each.
1. CN(C)c1ccnc2sc3c(=O)n(Cc4ccccc4)cnc3c12
2. O=C(CN1C(=O)CC(c2ccccc2)=Nc2ccccc21)NC1CCCCC1

[reply]
1: 2.78; 2: 12.2

[ask] Reported inhibition for O=C(CN1C(=O)NC2(CCCCCC2)C1=O)NC1CC1 : what is it?
[reply] 0.9
